The reported measurements were obtained from patent US8426447B2.

# target.or.test.system: BACE1 (Homo sapiens, UniProt P56817)
# Sequence (P56817 46-501, species assumed): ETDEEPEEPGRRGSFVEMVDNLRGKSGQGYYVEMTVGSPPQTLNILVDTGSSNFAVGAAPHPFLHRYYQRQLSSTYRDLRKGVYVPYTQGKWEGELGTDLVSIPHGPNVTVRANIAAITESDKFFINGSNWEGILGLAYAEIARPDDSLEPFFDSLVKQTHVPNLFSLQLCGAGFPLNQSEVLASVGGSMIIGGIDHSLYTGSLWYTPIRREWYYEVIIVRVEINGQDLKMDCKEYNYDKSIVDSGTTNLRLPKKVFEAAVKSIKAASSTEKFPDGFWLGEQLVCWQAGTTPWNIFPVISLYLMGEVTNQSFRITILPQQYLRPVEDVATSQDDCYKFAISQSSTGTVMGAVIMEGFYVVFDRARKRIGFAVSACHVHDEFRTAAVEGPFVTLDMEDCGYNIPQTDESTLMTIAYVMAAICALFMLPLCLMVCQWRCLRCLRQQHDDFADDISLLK
# assay.protocol: In Vitro BACE Cell-based Assay (HEK cell assay): Aβ40 in conditioned medium of cells stably expressing Amyloid Precursor Protein, sandwich ELISA
# assay.conditions: Table IV, class symbols; read-out: HEK cell assay
pIC50: −log10 of the molar value.
Listed next: entries and their corresponding pIC50.
readout.label: pIC50

# compound, readout.label, test.value
rows = [
    ("Cc1ccccc1-c1ccc2c(c1)[C@]1(COC(N)=N1)c1cccnc1O2 [compound 609]", "pIC50", "< 5.30"),
    ("NC1=N[C@@]2(CO1)c1cnccc1Oc1ccc(-c3cccnc3)cc12 [compound 556]", "pIC50", "6.00 to 7.00"),
    ("COc1ccc2c(c1)[C@]1(COC(N)=N1)c1cc(NC(=O)c3ccc(Cl)cn3)ccc1O2 [compound 652]", "pIC50", "6.00 to 7.00"),
    ("NC1=N[C@]2(CO1)c1cc(-c3cncnc3)ccc1Oc1c(F)cccc12 [compound 552]", "pIC50", "< 5.30"),
    ("CC(C)(C)COc1ccc2c(c1)[C@]1(COC(N)=N1)c1cc(-c3cccs3)ccc1O2 [compound 834]", "pIC50", "5.30 to 6.00"),
    ("CC(C)(C)COc1ccc2c(c1)[C@]1(COC(N)=N1)c1cc(CO)ccc1O2 [compound 828]", "pIC50", "5.30 to 6.00"),
    ("COc1ccc2c(c1)[C@]1(COC(N)=N1)c1cc(C#CC(C)(C)O)cnc1O2 [compound 903]", "pIC50", "< 5.30"),
    ("CC(C)(C)COc1ccc2c(c1)[C@@]1(COC(N)=N1)c1cc(-c3ccc(F)nc3)cnc1O2 [compound 868]", "pIC50", "> 7.00"),
    ("NC1=N[C@]2(CO1)c1ccccc1Oc1ccc(-c3cc4ccccc4[nH]3)cc12 [compound 567]", "pIC50", "< 5.30"),
    ("COc1ccc2c(c1)[C@]1(COC(N)=N1)c1cc(-c3cnc4ccccc4c3)ccc1O2 [compound 633]", "pIC50", "5.30 to 6.00"),
    ("COc1ncccc1-c1ccc2c(c1)[C@@]1(COC(N)=N1)c1cc(C#CC(C)(C)OC)cnc1O2 [compound 806]", "pIC50", "> 7.00"),
    ("NC1=N[C@@]2(CO1)c1cc(-c3cncnc3)ccc1Oc1ccc(-c3cccc(O)c3)cc12 [compound 891]", "pIC50", "6.00 to 7.00"),
    ("NC1=N[C@@]2(CO1)c1ccccc1Oc1ccc(-c3cccnc3F)cc12 [compound 641]", "pIC50", "5.30 to 6.00"),
    ("CC(=O)c1cccc(-c2ccc3c(c2)[C@]2(COC(N)=N2)c2cc(-c4cncnc4)ccc2O3)c1 [compound 889]", "pIC50", "> 7.00"),
    ("COC(=O)c1ccc2c(c1)[C@@]1(COC(N)=N1)c1cc(OCC(C)(C)C)ccc1O2 [compound 850]", "pIC50", "5.30 to 6.00"),
    ("NC1=N[C@@]2(CO1)c1ccccc1Oc1ccc(-c3cc4ccccc4o3)cc12 [compound 587]", "pIC50", "5.30 to 6.00"),
]
